# measured.on: Bombesin receptor subtype-3 (Mus musculus, UniProt O54798)
# Sequence (O54798 whole entry): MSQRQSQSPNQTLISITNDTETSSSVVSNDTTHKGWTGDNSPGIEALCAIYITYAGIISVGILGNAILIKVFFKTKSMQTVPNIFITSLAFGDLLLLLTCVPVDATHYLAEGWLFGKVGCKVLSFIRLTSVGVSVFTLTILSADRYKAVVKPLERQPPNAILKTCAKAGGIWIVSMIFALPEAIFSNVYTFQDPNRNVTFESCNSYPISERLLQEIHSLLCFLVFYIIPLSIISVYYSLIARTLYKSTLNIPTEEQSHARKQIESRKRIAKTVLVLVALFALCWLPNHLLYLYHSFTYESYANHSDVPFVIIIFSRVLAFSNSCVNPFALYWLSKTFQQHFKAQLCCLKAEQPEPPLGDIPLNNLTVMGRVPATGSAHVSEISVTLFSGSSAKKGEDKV
# method: Agonist activity at mouse BRS-3 expressed in HEK293 cells coexpressing AEQ over 10 mins by aequorin bioluminescence assay relative to D-Tyr6-betaAla11-Phe13-Nle14-bombesin
# Format: functional, cell-based
readout: Emax (%)

smi=CCC(C)(C)Cc1c[nH]c(CCc2ccc(-c3cccc(N)n3)cc2)n1 result_units=% endpoint_result=119
smi=CCC(C)(C)Cc1c[nH]c(CCc2ccc(-c3cccc(C)n3)cc2)n1 result_units=% endpoint_result=106
smi=CCC(C)(C)Cc1cnc(CCc2ccc(-c3cccc(C#N)n3)cc2)[nH]1 result_units=% endpoint_result=115
smi=CCC(C)(C)Cc1cnc(CCc2ccc(-c3csnn3)cc2)[nH]1 result_units=% endpoint_result=109
smi=CCC(C)(C)Cc1c[nH]c(CCc2ccc(-n3cccn3)cc2)n1 result_units=% endpoint_result=113
smi=CCC(C)(C)Cc1cnc(CCc2ccc(-c3cccnc3)cc2)[nH]1 result_units=% endpoint_result=97
smi=CCC(C)(C)Cc1cnc(CCc2ccc(-n3ccnn3)cc2)[nH]1 result_units=% endpoint_result=111
smi=CCC(C)(C)Cc1cnc(CCc2ccc(-c3ccc(F)cn3)cc2)[nH]1 result_units=% endpoint_result=105
smi=CCC(C)(C)Cc1c[nH]c(CCc2ccc(-c3ccccc3C(=O)O)cc2)n1 result_units=% endpoint_result=94
smi=c1ccc(-c2ccc(CCc3nc(CC4CCCC4)c[nH]3)cc2)nc1 result_units=% endpoint_result=103
smi=CCC(C)(C)Cc1c[nH]c(CCc2ccc(-n3ncnn3)cc2)n1 result_units=% endpoint_result=99
smi=CCC(C)(C)Cc1cnc(CCc2ccc(-n3cncn3)cc2)[nH]1 result_units=% endpoint_result=121
smi=CCC(C)(C)Cc1cnc(CCc2ccc(N3CCCCC3)cc2)[nH]1 result_units=% endpoint_result=133
smi=CCC(C)(C)Cc1c[nH]c(CCc2ccc(-c3cccc(C(=O)O)n3)cc2)n1 result_units=% endpoint_result=90
smi=CCC(C)(C)Cc1c[nH]c(CCc2ccc(-c3cnccn3)cc2)n1 result_units=% endpoint_result=107
smi=CCC(C)(C)Cc1cnc(CCc2ccc(-c3ccncc3)cc2)[nH]1 result_units=% endpoint_result=103
smi=O=C(O)c1cc(F)c(F)cc1-c1ccc(CCc2nc(CC3CCCCC3)c[nH]2)cc1 result_units=% endpoint_result=96
smi=CCC(C)(C)Cc1c[nH]c(CCc2ccc(-c3ccns3)cc2)n1 result_units=% endpoint_result=103
smi=CCC(C)(C)Cc1c[nH]c(CCc2ccc(-c3cccc(O)n3)cc2)n1 result_units=% endpoint_result=91
smi=CCC(C)(C)Cc1cnc(CCc2ccc(-c3cnsc3)cc2)[nH]1 result_units=% endpoint_result=119
smi=CCC(C)(C)Cc1cnc(CCc2ccc(-c3cccnc3C(=O)O)cc2)[nH]1 result_units=% endpoint_result=97

* * *

Catalogue of concentration at 1 h values
# method: Drug level in rat brain at 1 mg/kg, iv after 1 hr
# Format: ADME, organism-based
# Design: dose 1 mg/kg, route intravenous
# run.conditions: read-out: Drug uptake
readout: concentration at 1 h (nM)

smi=CCC(C)(C)Cc1c[nH]c(CCc2ccc(-n3cccn3)cc2)n1 readout="concentration at 1 h" endpoint_result=20
smi=CCC(C)(C)Cc1cnc(CCc2ccc(-n3cncn3)cc2)[nH]1 readout="concentration at 1 h" endpoint_result=80
smi=c1ccc(-c2ccc(CCc3nc(CC4CCCC4)c[nH]3)cc2)nc1 readout="concentration at 1 h" endpoint_result=30
smi=CCC(C)(C)Cc1cnc(CCc2ccc(-c3cnsc3)cc2)[nH]1 readout="concentration at 1 h" endpoint_result=230

* * *

Catalogue of concentration at 1 h values
# method: Drug level in rat plasma at 1 mg/kg, iv after 1 hr
# Type: ADME, organism-based
# Set-up: dose 1 mg/kg, route intravenous
readout: concentration at 1 h (nM)

smi=CCC(C)(C)Cc1cnc(CCc2ccc(-n3cncn3)cc2)[nH]1 endpoint_result=200
smi=CCC(C)(C)Cc1cnc(CCc2ccc(-c3cnsc3)cc2)[nH]1 endpoint_result=540
smi=c1ccc(-c2ccc(CCc3nc(CC4CCCC4)c[nH]3)cc2)nc1 endpoint_result=39
smi=CCC(C)(C)Cc1c[nH]c(CCc2ccc(-n3cccn3)cc2)n1 endpoint_result=30

* * *

# measured.on: Bombesin receptor subtype-3 (Homo sapiens)
# Sequence (P32247 whole entry, the tested form may be a part): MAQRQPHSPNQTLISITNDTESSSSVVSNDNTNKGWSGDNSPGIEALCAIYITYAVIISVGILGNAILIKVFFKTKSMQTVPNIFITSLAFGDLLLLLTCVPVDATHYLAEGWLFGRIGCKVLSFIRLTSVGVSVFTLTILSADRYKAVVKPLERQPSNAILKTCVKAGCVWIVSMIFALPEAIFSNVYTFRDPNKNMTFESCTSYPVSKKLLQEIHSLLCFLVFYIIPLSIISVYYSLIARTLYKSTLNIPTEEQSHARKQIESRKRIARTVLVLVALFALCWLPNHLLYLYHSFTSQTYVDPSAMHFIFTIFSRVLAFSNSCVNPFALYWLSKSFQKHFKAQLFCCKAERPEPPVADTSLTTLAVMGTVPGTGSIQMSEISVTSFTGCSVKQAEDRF
# method: Agonist activity at human BRS-3 expressed in HEK293 cells coexpressing AEQ over 10 mins by aequorin bioluminescence assay relative to D-Tyr6-betaAla11-Phe13-Nle14-bombesin
# Type: functional, cell-based
readout: Emax (%)

smi=CCC(C)(C)Cc1cnc(CCc2ccc(-n3ccnn3)cc2)[nH]1 endpoint_result=93
smi=CCC(C)(C)Cc1c[nH]c(CCc2ccc(-n3cccn3)cc2)n1 endpoint_result=106
smi=CCC(C)(C)Cc1cnc(CCc2ccc(-n3cncn3)cc2)[nH]1 endpoint_result=89
smi=O=C(O)c1cc(F)c(F)cc1-c1ccc(CCc2nc(CC3CCCCC3)c[nH]2)cc1 endpoint_result=103
smi=CCC(C)(C)Cc1cnc(CCc2ccc(-c3cccnc3)cc2)[nH]1 endpoint_result=98
smi=CCC(C)(C)Cc1c[nH]c(CCc2ccc(-n3ncnn3)cc2)n1 endpoint_result=89
smi=CCC(C)(C)Cc1cnc(CCc2ccc(-c3ccc(F)cn3)cc2)[nH]1 endpoint_result=97
smi=CCC(C)(C)Cc1cnc(CCc2ccc(-c3ccncc3)cc2)[nH]1 endpoint_result=95
smi=CCC(C)(C)Cc1c[nH]c(CCc2ccc(-c3cccc(O)n3)cc2)n1 endpoint_result=100
smi=CCC(C)(C)Cc1cnc(CCc2ccc(-c3cccc(C#N)n3)cc2)[nH]1 endpoint_result=95
smi=c1ccc(-c2ccc(CCc3nc(CC4CCCC4)c[nH]3)cc2)nc1 endpoint_result=98

* * *

# measured.on: Bombesin receptor subtype-3 (Mus musculus, UniProt O54798)
# Sequence (O54798 whole entry): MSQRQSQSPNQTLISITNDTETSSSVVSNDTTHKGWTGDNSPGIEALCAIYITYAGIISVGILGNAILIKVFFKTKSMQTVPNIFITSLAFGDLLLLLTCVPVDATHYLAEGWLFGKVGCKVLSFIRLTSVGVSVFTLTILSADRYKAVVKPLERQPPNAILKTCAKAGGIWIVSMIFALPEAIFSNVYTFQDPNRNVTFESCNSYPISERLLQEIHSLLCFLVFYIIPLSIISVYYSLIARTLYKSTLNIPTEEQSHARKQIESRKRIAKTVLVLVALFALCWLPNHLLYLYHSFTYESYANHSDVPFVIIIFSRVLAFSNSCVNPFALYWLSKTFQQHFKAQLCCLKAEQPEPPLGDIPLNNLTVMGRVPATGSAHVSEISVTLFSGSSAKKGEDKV
# method: Agonist activity at mouse BRS-3 expressed in HEK293 cells coexpressing AEQ over 10 mins by aequorin bioluminescence assay
Catalogue of EC50 values
readout: EC50 (µM)

smi=CCC(C)(C)Cc1cnc(CCc2ccc(-c3ccncc3)cc2)[nH]1 endpoint_result=0.015
smi=CCC(C)(C)Cc1cnc(CCc2ccc(-c3cccnc3C(=O)O)cc2)[nH]1 endpoint_result=0.014
smi=CCC(C)(C)Cc1cnc(CCc2ccc(-n3cncn3)cc2)[nH]1 endpoint_result=0.012
